# system_under_test: somatostatin subtype 2 rat receptor (rat, UniProt P30680 1-369)
# Sequence (P30680 whole entry): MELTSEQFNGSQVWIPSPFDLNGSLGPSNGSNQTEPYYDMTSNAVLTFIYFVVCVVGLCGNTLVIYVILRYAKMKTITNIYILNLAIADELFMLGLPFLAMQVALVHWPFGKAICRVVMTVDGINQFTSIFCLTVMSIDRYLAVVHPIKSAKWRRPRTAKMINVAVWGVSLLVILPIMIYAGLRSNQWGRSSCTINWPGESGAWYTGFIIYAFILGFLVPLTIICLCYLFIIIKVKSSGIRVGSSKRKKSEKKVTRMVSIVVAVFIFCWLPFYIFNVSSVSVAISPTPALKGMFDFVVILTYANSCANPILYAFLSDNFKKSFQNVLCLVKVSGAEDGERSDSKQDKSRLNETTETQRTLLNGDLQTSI
# experimental_protocol: cell-based or functional assay
Bridges are numbered along the chain shown (N, C = ends). Where no end group is shown, it is not given here. [ ]: non-standard residue; d: D form. hSer = N[C@@H](CCO)C(=O)O
readout_name: IC50 (nM), inhibition of GH release from primary cultures of rat pituitary cells
Return type: number; implicit unit nM.

Q: Reported IC50 (nM), inhibition of GH release from primary cultures of rat pituitary cells for [dS][dS][dS][dS][dS][hSer][dY][dS]CF[dW]KTCT-NH2 (disulfide 9-14; N-terminus assumed; SMILES C[C@@H](O)[C@H](NC(=O)[C@@H]1CSSC[C@H](NC(=O)[C@@H](CO)NC(=O)[C@@H](Cc2ccc(O)cc2)NC(=O)[C@H](CCO)NC(=O)[C@@H](CO)NC(=O)[C@@H](CO)NC(=O)[C@@H](CO)NC(=O)[C@@H](CO)NC(=O)[C@H](N)CO)C(=O)N[C@@H](Cc2ccccc2)C(=O)N[C@H](Cc2c[nH]c3ccccc23)C(=O)N[C@@H](CCCCN)C(=O)N[C@@H]([C@@H](C)O)C(=O)N1)C(N)=O) : what is it?
Ans: 0.55
